Experiment: Caco-2 permeability
Assay type: in vitro ADME
Conditions: human
Assay metric: Papp (×10⁻⁶ cm/s)
All answers are understood in ×10⁻⁶ cm/s, so give the number only.

Given item `O=C(c1nn([C@@H]2CCCN(CCN3CCOCC3)C2)c2c1CS(=O)(=O)c1cc(F)ccc1-2)N1CCOCC1` , the value recorded as its Papp is 2.4

====

System: CD69 on B220+ B cells, mouse whole blood
Experiment: Anti-IgD-induced CD69 in mouse whole blood (in vitro)
Type: cell-based
Conditions: B-cell, average, read-out: average IC50 for CD69
Assay metric: IC50 (nM)
All answers are understood in nM, so give the number only.

Given item O=C(c1nn([C@@H]2CCCN(CCN3CCOCC3)C2)c2c1CS(=O)(=O)c1cc(F)ccc1-2)N1CCOCC1 [MSC2364588] , the value recorded as its IC50 is 16

====

System: CD69 on CD19+ cells, PBMCs from SLE patients
Assay: Anti-IgM-induced CD69 up-regulation in PBMCs from SLE patients
Format: cell-based
Conditions: Homo sapiens, PBMC, 18 h, SLE patient PBMC, one donor (Figure 4C, left), anti-IgM 18 h
Assay metric: pIC50
Reminder that pIC50 is minus the log10 of a molar concentration.

Given item `O=C(c1nn([C@@H]2CCCN(CCN3CCOCC3)C2)c2c1CS(=O)(=O)c1cc(F)ccc1-2)N1CCOCC1` , the value recorded as its pIC50 is 8.05

====

Test: In vivo pharmacokinetics in mouse
Details: C57BL/6N, plasma, po, estimated
Assay metric: CL/F (mL/min/kg)
All answers are understood in mL/min/kg, so give the number only.

Given item O=C(c1nn([C@@H]2CCCN(CCN3CCOCC3)C2)c2c1CS(=O)(=O)c1cc(F)ccc1-2)N1CCOCC1 [MSC2364588] , the value recorded as its CL/F is 418

====

Tested on: CD69 on CD19+ cells, PBMCs from SLE patients
Test: Anti-IgM-induced CD69 up-regulation in PBMCs from SLE patients
Assay type: cell-based
Conditions: Homo sapiens, PBMC, 18 h, SLE patient PBMC, another donor (Figure 4C, right), anti-IgM 18 h
Assay metric: IC50 (nM)
All answers are understood in nM, so give the number only.

Given item `O=C(c1nn([C@@H]2CCCN(CCN3CCOCC3)C2)c2c1CS(=O)(=O)c1cc(F)ccc1-2)N1CCOCC1` , the value recorded as its IC50 is 12

The origin of these recorded values is paper PMC4033217.
